Exercise: state measured AUC(0-inf) for each of the molecules provided.
Test: Pharmacokinetic studies in ICR mice, oral gavage, plasma
Format: in vivo
Settings: mouse, oral gavage, 2.5 mg/kg, 1:1 molar mix, plasma

Can you look up the measured AUC(0-inf) of Cc1nc(NC(=O)N2CCC[C@H]2C(N)=O)sc1-c1ccnc(C(C)(C)C(F)(F)F)c1 [Alpelisib, reference compound] for me?
30600 ng·h/mL

Quick one: AUC(0-inf) of Cc1nc(NC(=O)N2CCC[C@H]2C(N)=[18O])sc1-c1ccnc(C(C)(C)C(F)(F)F)c1 [Compound 1] ?
32600 ng·h/mL

* * *

Experiment: Pharmacokinetic studies in Sprague Dawley (SD) rats, oral gavage, plasma
Assay type: in vivo
Conditions: Sprague-Dawley, rat, oral gavage, dose 2.5 mg/kg, 1:1 molar mix, plasma
Value Type: AUC(0-inf)
In your response, the unit should come after the numeric value.

Fill in: AUC(0-inf) of Cc1nc(NC(=O)N2CCC[C@H]2C(N)=[18O])sc1-c1ccnc(C(C)(C)C(F)(F)F)c1 is ___
28800 ng·h/mL

So what does the record say about AUC(0-inf) for Cc1nc(NC(=O)N2CCC[C@H]2C(N)=O)sc1-c1ccnc(C(C)(C)C(F)(F)F)c1 [Alpelisib, reference compound] ?
26500 ng·h/mL

* * *

Assay: Pharmacokinetic studies in Sprague Dawley (SD) rats, oral gavage, plasma
Assay type: in vivo
Settings: Sprague-Dawley, rat, oral gavage, low dose 0.322 mg/kg, plasma
Experimental: (a) SD rats, six in a group (n=6), were grouped randomly. Compound 1 (Alpelisib-^18O1) and Alpelisib were mixed and adjusted to 1:1 molar ratio in dosing solution (1.25 mg/mL); and the dosing solution was administered to the animals, via oral gavage, at a dose level of 2.5 mg/kg. […] The blood samples were converted to plasma samples using standard techniques, and the latter samples were analyzed to determine the concentrations of Compound 1 and Alpelisib. […]
For each of the compounds below, state its AUC(0-t).
Give just the number in ng·h/mL; leave the unit off.

So what's the measured AUC(0-t) for this one? Cc1nc(NC(=O)N2CCC[C@H]2C(N)=[18O])sc1-c1ccnc(C(C)(C)C(F)(F)F)c1
118

Which AUC(0-t) value belongs to Cc1nc(NC(=O)N2CCC[C@H]2C(N)=O)sc1-c1ccnc(C(C)(C)C(F)(F)F)c1 [Alpelisib, reference compound] ?
75.2

* * *

Provide the reported Tmax of each item.
Test: Pharmacokinetic studies in ICR mice, oral gavage, plasma
Format: in vivo
Conditions: mouse, oral gavage, 2.5 mg/kg, 1:1 molar mix, plasma
Procedure: ICR mice, 48, in 6 groups (n=8), were grouped randomly. Compound 1 (Alpelisib-^18O1) and Alpelisib were mixed and adjusted to 1:1 molar ratio in dosing solution (1.25 mg/mL); and the dosing solution was administered to the animals, via oral gavage, at a dose level of 2.5 mg/kg. […] The blood samples were converted to plasma samples using standard techniques, and the latter samples were analyzed to determine the concentrations of Compound 1 and Alpelisib. […]
API: value field is a number in h; no unit string.

Tmax lookup needed for Cc1nc(NC(=O)N2CCC[C@H]2C(N)=[18O])sc1-c1ccnc(C(C)(C)C(F)(F)F)c1 , thanks.
2

What measured Tmax goes with Cc1nc(NC(=O)N2CCC[C@H]2C(N)=O)sc1-c1ccnc(C(C)(C)C(F)(F)F)c1 [Alpelisib, reference compound] ?
2

* * *

Experiment: Pharmacokinetic studies in beagle dogs, single oral dose, co-administered
Type: in vivo
Details: both sexes, dog, plasma, single oral dose 2.5 mg/kg each, co-administered
Value Type: Cmax
Returns: string containing the number followed by the unit.

Please look up its Cmax: Cc1nc(NC(=O)N2CCC[C@H]2C(N)=O)sc1-c1ccnc(C(C)(C)C(F)(F)F)c1 [Alpelisib, reference compound]
931 ng/mL

Look up Cmax for this compound: Cc1nc(NC(=O)N2CCC[C@H]2C(N)=[18O])sc1-c1ccnc(C(C)(C)C(F)(F)F)c1
1470 ng/mL

* * *

Experiment: Pharmacokinetic studies in Sprague Dawley (SD) rats, oral gavage, plasma
Format: in vivo
Settings: Sprague-Dawley, rat, oral gavage, dose 2.5 mg/kg, 1:1 molar mix, plasma, read-out: Vz/F
Value Type: Vd/F (L/kg)
The response must be a number in L/kg with no trailing unit.

Which Vd/F reading was recorded for the compound Cc1nc(NC(=O)N2CCC[C@H]2C(N)=O)sc1-c1ccnc(C(C)(C)C(F)(F)F)c1 [Alpelisib, reference compound] ?
1.8

Requested field: Vd/F. Item: Cc1nc(NC(=O)N2CCC[C@H]2C(N)=[18O])sc1-c1ccnc(C(C)(C)C(F)(F)F)c1
1.66

* * *

Experiment: Pharmacokinetic studies in Sprague Dawley (SD) rats, oral gavage, plasma
Assay type: in vivo
Conditions: Sprague-Dawley, rat, oral gavage, low dose 0.322 mg/kg, plasma
Value Type: AUC(0-inf) (ng·h/mL)
// return numeric value only (unit: ng·h/mL, not printed)

What does the data say about its AUC(0-inf)? Entry: Cc1nc(NC(=O)N2CCC[C@H]2C(N)=[18O])sc1-c1ccnc(C(C)(C)C(F)(F)F)c1 [Compound 1]
132

Form field: reported AUC(0-inf) of Cc1nc(NC(=O)N2CCC[C@H]2C(N)=O)sc1-c1ccnc(C(C)(C)C(F)(F)F)c1 [Alpelisib, reference compound]
80.3

* * *

Task for the reader: assign each of the following molecules its reported Cmax.
Assay: Pharmacokinetic studies in Sprague Dawley (SD) rats, oral gavage, plasma
Type: in vivo
Settings: Sprague-Dawley, rat, oral gavage, low dose 0.322 mg/kg, plasma
The reply should contain only the number, in ng/mL.

Look at this molecule and give its reported Cmax. Cc1nc(NC(=O)N2CCC[C@H]2C(N)=O)sc1-c1ccnc(C(C)(C)C(F)(F)F)c1 [Alpelisib, reference compound]
28.1

Reported Cmax for Cc1nc(NC(=O)N2CCC[C@H]2C(N)=[18O])sc1-c1ccnc(C(C)(C)C(F)(F)F)c1 : what is it?
32.6

* * *

Assay: Pharmacokinetic studies in beagle dogs, single oral dose, co-administered
Format: in vivo
Conditions: both sexes, dog, plasma, single oral dose 2.5 mg/kg each, co-administered
Could you please report measured half-life for the items listed next?
Return type: number; implicit unit min.

Suppose we examine the compound Cc1nc(NC(=O)N2CCC[C@H]2C(N)=O)sc1-c1ccnc(C(C)(C)C(F)(F)F)c1 [Alpelisib, reference compound] ; what half-life value has been reported?
324

Data request, read-out half-life, for Cc1nc(NC(=O)N2CCC[C@H]2C(N)=[18O])sc1-c1ccnc(C(C)(C)C(F)(F)F)c1 [Compound 1]
270

* * *

Test: Pharmacokinetic studies in ICR mice, oral gavage, plasma
Type: in vivo
Conditions: mouse, oral gavage, 2.5 mg/kg, 1:1 molar mix, plasma, read-out: Vz/F
Procedure: ICR mice, 48, in 6 groups (n=8), were grouped randomly. Compound 1 (Alpelisib-^18O1) and Alpelisib were mixed and adjusted to 1:1 molar ratio in dosing solution (1.25 mg/mL); and the dosing solution was administered to the animals, via oral gavage, at a dose level of 2.5 mg/kg. […] The blood samples were converted to plasma samples using standard techniques, and the latter samples were analyzed to determine the concentrations of Compound 1 and Alpelisib. […]
I'd be grateful if you could share measured Vd/F for these entries.
Entry rule: numbers only, all in L/kg.

Consider the compound Cc1nc(NC(=O)N2CCC[C@H]2C(N)=[18O])sc1-c1ccnc(C(C)(C)C(F)(F)F)c1 and give its measured Vd/F.
2.24

Need Vd/F of Cc1nc(NC(=O)N2CCC[C@H]2C(N)=O)sc1-c1ccnc(C(C)(C)C(F)(F)F)c1 [Alpelisib, reference compound] , thanks.
2.37

* * *

Experiment: Pharmacokinetic studies in Sprague Dawley (SD) rats, oral gavage, plasma
Assay type: in vivo
Settings: Sprague-Dawley, rat, oral gavage, low dose 0.322 mg/kg, plasma
Value Type: Tmax (min)
# output: bare number, implied unit min

Which measured Tmax value corresponds to Cc1nc(NC(=O)N2CCC[C@H]2C(N)=O)sc1-c1ccnc(C(C)(C)C(F)(F)F)c1 [Alpelisib, reference compound] ?
37.5

Which Tmax value belongs to Cc1nc(NC(=O)N2CCC[C@H]2C(N)=[18O])sc1-c1ccnc(C(C)(C)C(F)(F)F)c1 ?
52.5

* * *

Experiment: Pharmacokinetic studies in Sprague Dawley (SD) rats, oral gavage, plasma
Type: in vivo
Settings: Sprague-Dawley, rat, oral gavage, dose 2.5 mg/kg, 1:1 molar mix, plasma
Value Type: Cmax (ng/mL)
I only need the number, in ng/mL, no unit after it.

Record request: Cmax value, item Cc1nc(NC(=O)N2CCC[C@H]2C(N)=O)sc1-c1ccnc(C(C)(C)C(F)(F)F)c1 [Alpelisib, reference compound]
2300

So what's the measured Cmax for this one? Cc1nc(NC(=O)N2CCC[C@H]2C(N)=[18O])sc1-c1ccnc(C(C)(C)C(F)(F)F)c1 [Compound 1]
2390

* * *

Provide the recorded Tmax for the entries that follow.
Assay: Pharmacokinetic studies in beagle dogs, single oral dose, co-administered
Assay type: in vivo
Conditions: both sexes, dog, plasma, single oral dose 2.5 mg/kg each, co-administered
Give a bare numeral; the unit h is implied.

Value lookup for Tmax; key = Cc1nc(NC(=O)N2CCC[C@H]2C(N)=O)sc1-c1ccnc(C(C)(C)C(F)(F)F)c1 [Alpelisib, reference compound]
1.2

# input compound: Cc1nc(NC(=O)N2CCC[C@H]2C(N)=[18O])sc1-c1ccnc(C(C)(C)C(F)(F)F)c1 ; wanted: its Tmax
1.1
